# System: MOLT-4
# assay.summary: NCI tumour cell line growth inhibition, 48 h
Calls of active or inactive are those of the source. Cut-off read from the data, not from the text of the source: active = GI50 up to about 1.1 µM and inactive = higher.
Use one of these outcomes when replying: 1 (yes) = active, 0 (no) = inactive

Some entries whose results are on file:
compound	class
O=C(O)c1nc2ccccc2nc1Nc1ccc(Cl)c(Cl)c1	0 (no)
Nc1ccc(C(=O)N/C(=C\c2ccc3c(c2)OCO3)c2nc3ccc4c(c3[nH]2)C(=O)c2ccccc2C4=O)cc1	0 (no)
N[C@@H]1c2c(Br)sc(Br)c2C(=O)[C@H]1Br	0 (no)
COc1cc(C(C)c2cc3c(cc2OCCNC(=O)COc2cc4c(cc2C(C)c2cc(OC)c(OC)c(OC)c2)OCO4)OCO3)cc(OC)c1OC (stereo not given)	0 (no)
COc1cc2c(cc1OC)CC(N=[N+]=[N-])c1cc(OC)c(OC)cc1/C=C\2 (stereo not given)	0 (no)

**Q:** Field: outcome | Entry: "CCC1=NC(C(F)(F)F)(C(F)(F)F)N=C(N2CCOCC2)O1"
**A:** 0 (no)

**Q:** Field: outcome | Entry: CCOC(=O)Nc1cc(NC(/C=N/NC(C)=O)C(=O)OCC)c(OC)cc1NC(C)=O (stereo not given)
**A:** 0 (no)

**Q:** Field: outcome | Entry: "Cc1[nH]c2ccccc2c1-c1n[nH]c(=O)c2ccccc12"
**A:** 0 (no)

**Q:** Field: outcome | Entry: "CCCCCCCC/C=C\CCCCCCC/C=C1\C[C@](/C=C/C(=O)OC)(CO)OC1=O"
**A:** 1 (yes)

**Q:** Field: outcome | Entry: COc1cc(C2c3cc4c(cc3C(O)C3CCC(=O)N23)OCO4)cc(OC)c1OC (stereo not given)
**A:** 0 (no)

Data origin, for the record: ChEMBL document CHEMBL1201862
